Hello, the source for this data is patent US7521396B2, in case you need it.

assay: logP by HPLC on reversed-phase column (C 18), EEC Directive 79/831 Annex V.A8; assay type: physicochemical
Marks after values point to notes of the source that are not given here.
measurement_label: logP

1. CCOC(=O)C1CCCN(C(=O)Nc2cc(-n3c(=O)cc(C(F)(F)F)n(C)c3=O)c(F)cc2Cl)C1 (centres unmarked)
logP = 2.93^a)
2. CCN(OC)C(=O)Nc1cc(-n2c(=O)cc(C(F)(F)F)n(C)c2=O)c(F)cc1Cl
logP = 2.93^a)

---

tested on: weeds; assay: Post-emergence test (Example B), damage to weeds; type: in vivo; settings: test plants of 5-15 cm sprayed, rated after three weeks
measurement_label: activity against weeds (degree of damage)

1. Cn1ccsc1=NC(=O)Nc1cc(-n2c(=O)cc(C(F)(F)F)n(C)c2=O)c(F)cc1Br
strong activity
2. Cn1ccsc1=NC(=O)Nc1cc(-n2c(=O)cc(C(F)(F)F)n(C)c2=O)c(F)cc1Cl
strong activity
3. CONC(=O)Nc1cc(-n2c(=O)cc(C(F)(F)F)n(C)c2=O)c(F)cc1Br
strong activity
4. Cn1c(C(F)(F)F)cc(=O)n(-c2cc(NC(=O)N3CCOC3=O)c(Cl)cc2F)c1=O
strong activity

stdin: Data request, read-out activity against weeds (degree of damage), for CCONC(=O)Nc1cc(-n2c(=O)cc(C(F)(F)F)n(C)c2=O)c(F)cc1Cl
stdout: strong activity

stdin: Now the same for Cn1c(C(F)(F)F)cc(=O)n(-c2cc(NC(=O)N3CCCO3)c(Cl)cc2F)c1=O
stdout: strong activity

---

test: logP by HPLC on reversed-phase column (C 18), EEC Directive 79/831 Annex V.A8; assay type: physicochemical
Marks after values point to notes of the source that are not given here.
measurement_label: logP

1) Cn1ccsc1=NC(=O)Nc1cc(-n2c(=O)cc(C(F)(F)F)n(C)c2=O)c(F)cc1Br
logP = 2.59^a)
2) Cn1c(C(F)(F)F)cc(=O)n(-c2cc(NC(=O)N3CCOC3=O)c(Br)cc2F)c1=O
logP = 2.59^a)

---

assay: logP by HPLC on reversed-phase column (C 18), EEC Directive 79/831 Annex V.A8; type: physicochemical
Marks after values point to notes of the source that are not given here.
measurement_label: logP

1. Cn1c(C(F)(F)F)cc(=O)n(-c2cc(NC(=O)NC3=NCCS3)c(Cl)cc2F)c1=O
logP = 2.11^a)
2. Cn1c(C(F)(F)F)cc(=O)n(-c2cc(NC(=O)N3CCOCC3)c(Cl)cc2F)c1=O
logP = 2.11^a)
